system: MS2 coat protein; test: apparent KD of MS2 coat protein; higher = weaker reporter binding; conditions: Eterna round: R107; input ligand: none
VALUE KIND: apparent KD of MS2 coat protein (nM)

INPUT SEQUENCE | MEASUREMENT UNITS | NUMERIC READOUT
ACAUGAGGAUCACCCAUGUACAUGACGGAAGGAGCGUGCAAAAGCACAGGUAGGUCGCCGAUCUACAUAUUGGGUAUUAUAUUUU [#29 Exclusion - Arginine A] | nM | 19.4
UUCAGACAUGAGGAUCACCCAUGUACUGAAGGAGCGGAUAAAUAUCCAGGUAGGUCGCAGUAUUGAGGGUCUACUUCCAGUCUUU [Reoruser] | nM | 9.48
AAACAUGAGGAUCACCCAUGUAAUUCAGAAGGAGCGUCAUUAUUGACAGGUAGGUCGCUGAUAAAAUUUCUAUACAUCAUGUAUA [JR_SSArginiA_Sub013] | nM | 12.4
GCGGUGGGUCAAAAGUAAUAGAAUUCUGAAGGAGCGUGAUGAAACACAGGUAGGUCGCAGGAACAUGAGGAUCACCCAUGUACGG [Same State Arginine A GF21] | nM | 34
ACACAUGAGGAUCACCCAUGUGCGCUGGAAGGAGCGCAGAAUCAUGCAGGUAGGUCGCCAGUGCCCUUUGAUAAAGGGAAAAGAG [Reor] | nM | 43.3
ACAUGAGGAUCACCCAUGUAUUACCGGGAAGGAGCGGCCGGAAGGCCAGGUAGGUCGCUCGGCGUCGUGCUGUAAAGCACGACGA [#1 Same State - Arginine A Attempt #27 (HarryS)] | nM | 14
GGAUAGGACACGGCCGCCACUAGCUAGGAUACUAGCAACAUUUCCUCAUAUGAGGAUCACCCAUAUAGGACCGGGUGUCCUAUCG | nM | 376
GGUUACUCUACGGCCGCCACUGGGCAUGUAAAUAACAUGAGGAUCACCCAUGUGGAUUAAAAUUACAGGACCGGGUAGUGUAACC [Tryptophan B 21] | nM | 300
GGAUAGGACAGAAGGAGCGUGAGAUGCAUACCUUCAUUCCUCACAUGAGGAUCACCCAUGUCACAGGUAGGUCGCUGUCCUAUCG [#20 Exclusion - Arginine B] | nM | 93.5
UUUUUCGCGGGCGAUACCAGCUUGAUCGUACUGGCCUGGUACAUGAGGAUCACCCAUGUAAGCCCUUGGCAGCGCGCGGGAGAAG [Exclusion - Theophylline B Attempt #1 (HarryS)] | nM | 12.7
AUACAUGAGGAUCACCCAUGUAUAGUUGAAGGAGCGACCAGAGGGUCAGGUAGGUCGCAACACAUGAGGAUCACCCAUGUAUCGA [DOUBLE!!! :-D #7] | nM | 49.9
AUGCCUAGUGGAAGGAGCGAGGGUCCUCUCAACAUGAGGAUCACCCAUGUUCUUUUGCACCCUCAGGUAGGUCGCCAUUGGGACA [Veanaris] | nM | 59.8

---

system: MS2 coat protein; assay: apparent KD of MS2 coat protein; designed switch direction (-1 OFF switch, 1 ON switch): -1; higher = weaker reporter binding; conditions: input ligand: FMN 200 uM
Tag: Y if measured apparent KD of MS2 coat protein is not below 0.05 µM, N if it is.

INPUT SEQUENCE | MEASUREMENT TARGET | ANSWER LABEL
CUAGCGAUUGUAGGAUAUCGGACUGUUUCAGUCUGAGAAGGACAUGAGGAUCACCCAUGUGAAGGAUCGUGAGAUCCACGCUAG [JL ENG1 3.79] (Eterna round: R96, puzzle: Exclusion NG 1) | MS2 coat protein | Y
UAAAACGCAGAGGAUAUAUCAGAUCAAAGCUGCAUAGAAGGCUGCACAUGAGGAUCACCCAUGUGGUCUUUAAU [Mat - Exclusion 6 - JL Mod - D1] (Eterna round: R97, puzzle: Exclusion 6) | MS2 coat protein | Y
AUUAUGUUAGGAUAUGCUUAUGGUGGAUAAUCGGAUAUGAUGCAGAAGGGACAUGAGGAUCACCCAUGUACUGU [EX4 #23] (Eterna round: R97, puzzle: Exclusion 4) | MS2 coat protein | N
ACCGACAGAGGAUAUGCAAGUAGGAACAUGAGGAUCACCCAUGUGAUACGUGCACGUGCGGCAGAAGGCUGAUCGA [Velamaed] (Eterna round: R97, puzzle: Exclusion 5) | MS2 coat protein | N
GAACCGCGAGGAUAUACAGUCGAGUCUAUUACGUGUCUCGGACUUGAGGAUCACCCAAGUAGAAGGCGUCUCAG [salish99_ex2_r4_635] (Eterna round: R97, puzzle: Exclusion 2) | MS2 coat protein | Y
UAAUAACAAGCGAGAUCCUACAUGAGGAUCACCCAUGUGCUCGUCUUAUAAGGUACUGUGACGAUAGUCACGGUACC [Mat - Sensor, turn-off var - Eli Mod - D96] (Eterna round: R97, puzzle: Sensor, turn-off variant 1) | MS2 coat protein | N
CUGAACCCGGUAGGAUAUAUUGUGGGCAAGCGUGGAACGACAUGAGGAUCACCCAUGUAAUUUAGGUAGAAGGGCCGAGAGAUU [Excl-NG2-LRO12] (Eterna round: R96, puzzle: Exclusion NG 2) | MS2 coat protein | N
ACUUAUAGAGGAUAUACAGAAUAUUACAUGAGGAUCACCCAUGUUCUUCAAUGUAUAUAAGUAGAAGGCUAAGGAU [Mat - Exclusion 5 - JL Mod - D4] (Eterna round: R97, puzzle: Exclusion 5) | MS2 coat protein | Y
ACAAGCUUUUGGAUUUUCAACAUGAGGAUCACCCAUGUUCGUCUUAUGCGAGUGCGAGUGCGGUGUACUCGUAUUAG [JL TOV1 3.86 sellena mod] (Eterna round: R97, puzzle: Sensor, turn-off variant 1) | MS2 coat protein | N
AGUACUUUCACGAAAGUGAAAGUACAAAUGAGCUUUUGAACAUGAGGAUCACCCAUGUCCUCAUAAGCUCGUCUUAA [Mat - Sensor v2 - var 2 - Mod - D175] (Eterna round: R96, puzzle: Sensor v2, turn-off variant 2) | MS2 coat protein | N
ACAUGAGGAUCACCCAUGUGACCACGAUGGCUGAUGUAGAGCUAGGAUAUGUGUGAAUAUCUAUCACAGAAGGAGCUUGACUGG [Deportation 52 - Jieux - Exclusion NG 3] (Eterna round: R96, puzzle: Exclusion NG 3) | MS2 coat protein | N
GCACCGUCAGGAUAUACAUGAGGAUCACCCAUGUGACCACCACUGUUCAUGACGCAUUGUAGAAGGGACGGAAA [Eternabot (L2) Solution 47] (Eterna round: R97, puzzle: Exclusion 3) | MS2 coat protein | Y
UCGCUCCGUGUAGGAUAUCGCCGUUCCACUCGGCGAGAAGGACAUGAGGAUCACCCAUGUAUGUUAUUAUCACGUGUGGCGCGC [Design 53] (Eterna round: R96, puzzle: Exclusion NG 1) | MS2 coat protein | N
AGGCGCUCUGUUAGGAUAUUUGCUGACUACUAGGCGGAGAAGGAACAUGAGGAUCACCCAUGUAUACGAUCCGC [BmEX4 C.16] (Eterna round: R97, puzzle: Brourd's mod of Exclusion 4) | MS2 coat protein | N
GGCCGUAAUAAGGAUAUCACUAGCGAUAGCUAGUGAGAAGGUAUUACAUGAGGAUCACCCAUGUGAUCAGGCCA [E6/3-B3] (Eterna round: R97, puzzle: Exclusion 6) | MS2 coat protein | Y
UUUUAGUCAGGAUAUACAUGAGGAUCACCCAUGUAAAAUUUUAAUUUAAUUUGAAGGUGUAGAAGGGACAAUUU [Ex3 #39] (Eterna round: R97, puzzle: Exclusion 3) | MS2 coat protein | N
GGGACCCUUGUAGGAUAUAGAACCGCAGGAGGUCUAGAAGGGCACUGGUCGCCGUGGACAUGAGGAUCACCCAUGUGUUUGCCC [Eternabot solution 36] (Eterna round: R96, puzzle: Exclusion NG 1) | MS2 coat protein | Y
GAUUCACAUGACUGUCUAUACAUGAGGAUCACCCAUGUUUGUUUUUAUUUUUUUUUGCUUUUUAGUCGUCUUAUUAU [1 hard RNA] (Eterna round: R97, puzzle: Sensor, turn-off variant 1) | MS2 coat protein | N

---

tested on: MS2 coat protein; assay: apparent KD of MS2 coat protein; designed switch direction (-1 OFF switch, 1 ON switch): -1; higher = weaker reporter binding; conditions: Eterna round: R95; input ligand: microRNA oligo, concentration not stated
Below: a set of entries, each annotated with reported apparent KD of MS2 coat protein.

INPUT SEQUENCE | MEASUREMENT UNITS | apparent KD of MS2 coat protein
GUCGUGACCAAGGAUAUAGCUAGGGAAGGAAAGUUAGAAGGUGGUACAUGAGGAUCACCCAUGUAGUCCACAAA [Dixeatleve] (puzzle: Exclusion 6) | nM | 13
UGUACUAACACGAAAGUGUUAGUACAAUAAGCUUGUGUUACAUGAGGAUCACCCAUGUCCUCAUAAGCUCGUCUUAU [Mat - Sensor v3 - Turn-off var 2 - D51] (puzzle: Sensor v3, turn-off variant 2) | nM | 52.3
AUAAGCUUUGAGAUCCUUAACAUGAGGAUCACCCAUGUUCGUCUUAUGAUGGUCUGAUCCCUGAGGAUCGGACCGUA [Mat - Sensor v3 - turn-off var 1 - JL Mod - D1] (puzzle: Sensor v3, turn-off variant 1) | nM | 28.4
UUUUUUGUUUUUUUUACAAGCUUUUUGCUCGUCUUAUUAACAUGAGGAUCACCCAUGUCAAAGAGACCUCAUGUAUU [Sensor v3 - turn-off variant 2 - 1] (puzzle: Sensor v3, turn-off variant 2) | nM | 15.7
AGUAGUUGUUUCCGUUCUUACAUGAGGAUCACCCAUGUUUCUUGUCGUGCUCGCGUUGCUCGUCAGACUACCUGUUG [salish99_TOv1_r3_062] (puzzle: Sensor v3, turn-off variant 1) | nM | 88.6
AAGAAGAAACAAGCUUUUUGCUCGUCUUAUAGUGACGCAACAUGAGGAUCACCCAUGUAUAGGAUGAGGGUGGAUAG [JR_SV3TOV2_Sub046] (puzzle: Sensor v3, turn-off variant 2) | nM | 324
CCGAAUAAGUAGGAUAUCGUAUCGGAAACGAUACGAGAAGGGCUAACAUGAGGAUCACCCAUGUUCCUUAACGG [Fiskers Ex 6 - 16] (puzzle: Exclusion 6) | nM | 16.4
GUAGAGUAAGGAUAUGGUGAAUAGGAUAGAAUGGUUAGAAAUCAGAAGGUACAUGAGGAUCACCCAUGUAAUGU [Excluse me!!!! 15 - Jieux - Exclusion 4] (puzzle: Exclusion 4) | nM | 21
GCCGAUUAAGUGAGGAUAUACCUAUGGAUACAUAGGUAGAAGGCACAUGAGGAUCACCCAUGUUCCUUAACGGC [Fiskers BMX 4 - 7] (puzzle: Brourd's mod of Exclusion 4) | nM | 10.5
UUUUAACAUGAGGAUCACCCAUGUGAGGAUAUCGAAAUUUAUAUUAAUAUUUAUUUUUCGAGAAGGCACAUUUU [JMF 65] (puzzle: Exclusion 1) | nM | 157
UUACCAUGCCGCCUAAUAGCUUUUUGCUCGUCUUAUAUUACAUGAGGAUCACCCAUGUAAAACAUGUGGCGUGACCU [JL ViennaUCT Maridi mod 1] (puzzle: Sensor v3, turn-off variant 2) | nM | 112
AAGAAGCAAGGAUAUACAGAGGAGAGGAAAGCAAGAGGAGGACAUGAGGAUCACCCAUGUAGAAGGUGCAGAGA [JR_Exclu2_Sub019] (puzzle: Exclusion 2) | nM | 68.8
UUUAUGUCAGGAUAUGAUUAGAUCUACUUUUGUAGAUCUAAUCAGAAGGGACAUGAGGAUCACCCAUGUUUUUU [Ex4 - 3 - 15] (puzzle: Exclusion 4) | nM | 41.2
AAUAAUAAGGAGGAUAUCGUAUCGGAAACGAUACGAGAAGGCUUAACAUGAGGAUCACCCAUGUUCCUCAAUAA [Fiskers Ex 6 - 22] (puzzle: Exclusion 6) | nM | 33.5
GCAGGUUAAGUCAGGAUAUACCUAUGGAUACAUAGGUAGAAGGGACAUGAGGAUCACCCAUGUGGCUCACCUGC [Fiskers BMX 4 - 60] (puzzle: Brourd's mod of Exclusion 4) | nM | 21.6
AAAACACAUGAGGAUCACCCAUGUGAGGAUAUGUUGAUUUUGAUCAAAGUUAAGAUUAACAGAAGGCACAUAAA [JR_Exclusion1_Sub018] (puzzle: Exclusion 1) | nM | 36.1
AGUACUAACACGACAGUGUUAGUACAAUAAGCUUGUGAAACAUGAGGAUCACCCAUGUCCUCAUAAGCUCGUCUUAU [salish99_TOv2_r3_031] (puzzle: Sensor v3, turn-off variant 2) | nM | 867
ACCUAACAUGAGGAUCACCCAUGUCAGGAUAUCCAAGCGAAAGCAAAAGCGAAAGCAAGGAGAAGGGACAGAGG [ChP 04-04-2015 #8] (puzzle: Exclusion 1) | nM | 32.4
CGGUGCUGAGGAUAUACAUGAGGAUCACCCAUGUGUUCCAGCUAGCGUACUGGCAGAUGUAGAAGGCGGUACUG [JL-ex3-3.42 Brourd mod] (puzzle: Exclusion 3) | nM | 19.9
CUGAGCAGACGAAGAUCCAACAUGAGGAUCACCCAUGUCUCAAAAGCUUUUUGCUUGUCUUAUCCUUCCCUGCUCUC [Isbies] (puzzle: Sensor v3, turn-off variant 1) | nM | 207
